Where do the numbers come from? From patent US20040248904A1.

Assay remarks: Rat pharmacokinetics (% F, T1/2)
Assay setup: in vivo, oral, read-out: PK (% F) rat
Please provide measured bioavailability for the entries that follow.
One number for each entry, in %.

The following compounds have reported results that may help.
Give the measured bioavailability of CC(C)Cc1cc2c(NC3CCN(C(C)c4cccc(F)c4)CC3)ncnc2s1 (stereo not shown) . 3.9

Need bioavailability, item CC(C)Cc1cc2c(NC3CCN(C(C)c4cc(F)cc(F)c4)CC3)ncnc2s1 (stereo not shown) 2.8

Form field: reported bioavailability of `CC(C)c1cc2c(NC3CCN(Cc4cc(F)cc(F)c4)CC3)ncnc2s1` 9.8

Further cases:
Tell me the measured bioavailability of `c1ccc(CN2CCC(Nc3ncnc4sc5c(c34)CCCC5)CC2)cc1` , please. 1.5

====

Observed Ki, system 5-HT2B (Homo sapiens, UniProt P41595).
One number for each entry, in µM.

For every item below, please supply its Ki.
1. Cc1sc2ncnc(NC3CCN(CC4CCCCC4)CC3)c2c1C
2. CC(C)Cc1cc2c(NC3CCN(C(C)c4c(F)cc(F)cc4F)CC3)ncnc2s1 (stereo not drawn)
3. CC(c1c(F)cc(F)cc1F)N1CCC(Nc2ncnc3sc4c(c23)CCCC4)CC1 (stereo not drawn)
4. Fc1cccc(CNCCCNc2ncnc3sc4c(c23)CCCC4)c1
5. CC(C)c1cc2c(NC3CCN(Cc4cc(F)cc(F)c4)CC3)ncnc2s1

1: 0.0078; 2: 0.07; 3: 0.072; 4: 0.017; 5: 0.00057

====

Assay remarks: Rat pharmacokinetics (% F, T1/2)
Assay setup: in vivo, po, read-out: T1/2 (hr) rat* po (converted)
Property name: half-life
Express the reported value numerically, then name its unit.

Recorded half-life for CC(C)Cc1cc2c(NC3CCN(C(C)c4cccc(F)c4)CC3)ncnc2s1 (stereo not shown) , please? 0.45 h

====

Assay remarks: Rat pharmacokinetics (% F, T1/2)
Assay setup: in vivo, iv, read-out: T1/2 (hr) rat iv (converted)
Property name: half-life (h)
Answers are plain numbers, in h.

Quick one: half-life for `Fc1cc(F)cc(CN2CCC(Nc3ncnc4sccc34)CC2)c1` ? 0.3

====

// Ki collected for 5-HT2B (Homo sapiens, UniProt P41595)

Quick one: Ki of `Fc1cccc(CN2CCC(Nc3ncnc4sc5c(c34)CCCC5)CC2)c1` ? 2.3 nM

Given CC(c1cc(F)cc(F)c1)N1CCC(Nc2ncnc3sc4c(c23)CCCC4)CC1 (stereo not shown) , state its recorded Ki. 2.64 nM

GET /values?readout=Ki&item= CC(c1cccc(F)c1)N1CCC(Nc2ncnc3sccc23)CC1 (stereo not shown) 14 nM

Please give Ki, item by item, for the list that follows.
1. CC(c1cccc(F)c1)N1CCC(C)(Nc2ncnc3sc4c(c23)CCCC4)CC1 (stereo not shown)
2. CC(C)(c1cccc(F)c1)N1CCC(Nc2ncnc3sc4c(c23)CCCC4)CC1

["1200 nM", "15 nM"]

I need Ki for every entry listed below, if you could help.
1. CC(C)Cc1cc2c(N3CCC(NCc4cc(F)cc(F)c4)CC3)ncnc2s1
2. CC(C)Cc1cc2c(NCCCNC(C)c3cccc(F)c3)ncnc2s1 (stereo not shown)

1300 nM
150 nM
